# Tested on: SpTbr T-box DNA-binding domain (GST fusion);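 further: protein at 200 nM in PBS on universal double-stranded arrays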
# Sequence: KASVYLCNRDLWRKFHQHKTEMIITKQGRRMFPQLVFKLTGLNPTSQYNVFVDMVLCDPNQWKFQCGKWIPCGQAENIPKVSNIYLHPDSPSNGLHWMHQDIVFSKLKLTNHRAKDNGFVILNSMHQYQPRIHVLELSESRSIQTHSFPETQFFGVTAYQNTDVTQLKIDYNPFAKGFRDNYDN
# ASSAY SUMMARY: PBM E-score of 8-mer (E-score (dimensionless, -0.5 to 0.5)); Tbr is Tbrain of the sea star Patiria miniata (Pm) or the sea urchin Strongylocentrotus purpuratus (Sp); higher = stronger binding preference
# RECORDED CONDITIONS: the construct has about 5 more residues each side
Whole data set: some 33,000 sequences, median “E-score (dimensionless, -0.5 to 0.5)” near -0.046, cut for the highest 2% near 0.36. The sample as a whole holds a higher share of the highest values than the screen did.
Please provide measured PBM E-score of 8-mer for the entries that follow.
Answers are plain numbers.

Below, 3 sequences whose answers are already recorded.
>>> endpoint_result("GCGCACCA")
0.00307
>>> endpoint_result("CCCGACAC")
0.367
>>> endpoint_result("GGTGGCAA")
0.4

// for each sequence below, give its PBM E-score of 8-mer
1. CCCGACAA
2. TAAGCGAA
3. CCACCACA

[reply]
0.154
-0.0797
0.131

// for each sequence below, give its PBM E-score of 8-mer
1. CAGTGTCG
2. TAGACAGA
3. ACCTTAGA
4. ATGTGTAA

[reply]
[0.266, -0.0941, 0.0853, 0.342]

// for each sequence below, give its PBM E-score of 8-mer
1. CGTTGGGC
2. ACACACCA
3. CCTGCGAA
4. CTCAGCAC
5. TACACTCA
6. CAGCGCAA
7. TCGTGTCA
8. CCACACAA

[reply]
1. -0.255
2. 0.287
3. 0.367
4. 0.171
5. 0.137
6. -0.0911
7. 0.294
8. 0.0877
